# measurementTarget: HyMurG (Hydrogenivirga sp. 128-5-R1-1, UniProt A8US35)
# Sequence (A8US35 1-350): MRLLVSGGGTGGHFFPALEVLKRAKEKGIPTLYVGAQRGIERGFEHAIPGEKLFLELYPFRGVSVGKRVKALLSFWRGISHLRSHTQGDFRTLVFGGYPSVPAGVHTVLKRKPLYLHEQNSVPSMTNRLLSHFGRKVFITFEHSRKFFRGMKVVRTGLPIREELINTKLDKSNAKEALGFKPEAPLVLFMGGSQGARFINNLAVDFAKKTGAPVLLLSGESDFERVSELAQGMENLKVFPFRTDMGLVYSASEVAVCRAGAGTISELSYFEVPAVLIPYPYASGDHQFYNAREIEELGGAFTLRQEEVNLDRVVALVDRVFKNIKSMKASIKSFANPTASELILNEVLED
# measurementNotes: UV-Vis-based MurG assay
# Type: biochemical
# conditionNotes: read-out: HthermMurG inhibition (%)
readout: inhibition at 100 µM

Enquiry: Tell me measured inhibition at 100 µM for "C=C(C/C=C(\C)CCC=C(C)C)CCC(C)(C)/C=C/CC/C(C)=C\CO[C@H](COP(=O)(O)O[C@H]1O[C@H](C(N)=O)[C@@](C)(O)[C@H](OC(N)=O)[C@H]1O[C@@H]1O[C@H](CO[C@@H]2O[C@H](CO)[C@@H](O)[C@H](O)[C@H]2O)[C@@H](O[C@@H]2O[C@H](C)[C@@H](O[C@@H]3O[C@H](C(=O)NC4=C(O)CCC4=O)[C@H](O)[C@H](O)[C@H]3O)[C@H](O)[C@H]2NC(C)=O)[C@H](O)[C@H]1NC(C)=O)C(=O)O" please.
Return: 12%
